target: human RXFP1 (Homo sapiens, UniProt Q9HBX9); experiment: RXFP1 Hu cAMP (Test A); format: cell-based; set-up: expressed in transfected cells; host or cells: Jump-In T-REx CHO-K1 cells (ThermoFisher), induced with 10 ng/ml doxycycline for 24 h; conditions: RXFP1 Hu cAMP; read-out: Test A EC50
pEC50: −log10 of the molar value.
test.readout: pEC50

[P] COc1cc(F)c(OCc2cccc(CC(=O)O)c2)cc1C(=O)N[C@H]1[C@@H](C(=O)Nc2cccc(S(=O)(=O)C(F)(F)F)c2)[C@@H]2C=C[C@H]1C2 (racemic)
[Q] CCC(CC)[C@H](C)NC(=O)[C@H]1[C@@H]2CC[C@@H](C2)[C@H]1NC(=O)c1cc(O[C@H]2CC[C@@](C)(C(=O)O)CC2)c(F)cc1OC (single isomer, unassigned)
[R] COc1cc(F)c(O[C@H]2CC[C@@](C)(C(=O)O)CC2)cc1C(=O)N[C@@H]1CCC[C@@H]1C(=O)NCC1(C)CCC1
[S] COc1cc(F)c(O[C@H]2CC[C@@](C)(C(=O)O)CC2)cc1C(=O)N[C@@H]1[C@H]2CC[C@H](C2)[C@@H]1C(=O)N[C@H]1CCCN(S(=O)(=O)C(F)(F)F)C1
# sort list by recorded pEC50, greatest to least In your reply, arrange the labels in the requested order.
Q, S, R, P

###

Molecular target: human RXFP1 (Homo sapiens, UniProt Q9HBX9)
Sequence (Q9HBX9 1-757): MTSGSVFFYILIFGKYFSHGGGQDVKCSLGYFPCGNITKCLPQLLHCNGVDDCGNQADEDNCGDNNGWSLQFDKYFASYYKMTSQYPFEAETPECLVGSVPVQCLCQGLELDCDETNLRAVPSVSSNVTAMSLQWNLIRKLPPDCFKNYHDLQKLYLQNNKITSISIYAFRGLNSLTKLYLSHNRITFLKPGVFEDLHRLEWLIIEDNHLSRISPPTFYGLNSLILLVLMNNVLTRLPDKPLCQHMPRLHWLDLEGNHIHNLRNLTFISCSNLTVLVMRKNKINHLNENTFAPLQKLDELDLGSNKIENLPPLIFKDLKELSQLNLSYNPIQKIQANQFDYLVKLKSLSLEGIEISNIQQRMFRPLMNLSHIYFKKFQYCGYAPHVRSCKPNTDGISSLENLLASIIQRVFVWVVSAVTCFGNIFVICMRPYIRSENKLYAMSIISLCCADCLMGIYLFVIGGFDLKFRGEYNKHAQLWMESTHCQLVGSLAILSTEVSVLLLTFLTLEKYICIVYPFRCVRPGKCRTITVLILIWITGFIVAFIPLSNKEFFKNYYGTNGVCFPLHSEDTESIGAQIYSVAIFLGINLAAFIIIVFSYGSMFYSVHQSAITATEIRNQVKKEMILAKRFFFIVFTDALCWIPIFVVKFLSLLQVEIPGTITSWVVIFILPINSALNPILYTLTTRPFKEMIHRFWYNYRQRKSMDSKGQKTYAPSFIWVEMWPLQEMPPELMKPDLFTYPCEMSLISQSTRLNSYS
Assay: RXFP1 Hu cAMP (Test A)
Format: cell-based
Set-up: expressed in transfected cells; host or cells: Jump-In T-REx CHO-K1 cells (ThermoFisher), induced with 10 ng/ml doxycycline for 24 h
Settings: RXFP1 Hu cAMP; read-out: Test A EC50
test.readout: EC50 (nM)

Known EC50 results, listed for orientation:
molecule	unit.symbol	EC50
COc1cc(F)c(-c2ccc(C(=O)O)c(O)c2)cc1C(=O)N[C@@H]1[C@H]2CC[C@H](C2)[C@@H]1C(=O)Nc1cccc(S(=O)(=O)C(F)(F)F)c1	nM	50
COc1cc(C#N)c(O[C@H]2CC[C@@](C)(C(=O)O)CC2)cc1C(=O)N[C@@H]1[C@H]2CC[C@H](C2)[C@@H]1C(=O)NCC(C)(C)O	nM	41000
COc1ccc(Oc2ccc(C(=O)O)cc2)cc1C(=O)N[C@H]1[C@@H](C(=O)Nc2cccc(S(=O)(=O)C(F)(F)F)c2)[C@@H]2C=C[C@H]1C2 (racemic)	nM	680

[P] COc1cc(F)c(O[C@H]2CC[C@@](C)(C(=O)O)CC2)cc1C(=O)N[C@@H]1COC[C@@H]1C(=O)NCC1(C)CCC1 (racemic)
[Q] COc1cc(F)c(O[C@H]2CC[C@@](C)(C(=O)O)CC2)cc1C(=O)NC1C2CCC(C2)C1C(=O)Nc1cccc(S(=O)(=O)C(F)(F)F)c1 (single isomer, unassigned)
[R] COc1cc(F)c(O[C@H]2CC[C@@H](C(=O)O)CC2)cc1C(=O)N[C@H]1[C@@H](C(=O)Nc2cccc(S(=O)(=O)C(F)(F)F)c2)[C@@H]2C=C[C@H]1C2 (racemic)
[S] COc1cc(F)c(O[C@H]2CC[C@@H](C(=O)O)CC2)cc1C(=O)NC1=C(C(=O)Nc2ccc(F)c(C(F)(F)F)c2)CCCC1
[T] COc1cc(F)c(O[C@H]2CC[C@@H](C(=O)O)CC2)cc1C(=O)N[C@@H]1[C@H]2CC[C@H](C2)[C@@H]1C(=O)Nc1ccc(F)c(S(F)(F)(F)(F)F)c1
List the 5 entries from lowest EC50 to highest EC50 value. In your reply, arrange the labels in the requested order.
Q, T, R, S, P
